Molecular target: TRIM66_(965-1160) E968A (human, UniProt O15016 965-1160, E968A)
Test: ITC; MicroCal PEAQ-ITC, 25 °C, 20 mM Tris, 100 mM NaCl, pH 7.5; 0.7-4 mM peptide injected into the cell with 0.12 mM TRIM24-PHD-Bromo, 0.05 mM TRIM33 PHD-Bromo, or 0.05 or 0.11-[…] TRIM66-PHD-Bromo (or its mutants); single measurement, errors from the fitting curve
measuredMetric: pKd
The meaning of pKd here: minus log10 of the concentration in molar units.

Problem: Identify measured pKd associated with ARTKQTARKSTG (peptide, UniProt P68431 2-13, looked up, histone H3.1, Homo sapiens, residues 1-12; also called unH3_(1-12); unmodified H3_(1-12); source: synthetic peptide (GL Biochem)) [H3_(1-12) peptide]
Result: 4.46
